# EXPERIMENT DESCRIPTION: pharmacokinetic study in the cerebrospinal fluid of cynomolgus monkey
# Format: in vivo
# MEASUREMENT CONTEXT: cerebrospinal fluid, iv, 30 mg/kg, 60 min after second intravenous 30 mg/kg dose, individual animals, read-out: Drug concentration in cerebrospinal fluid
MEASURED PARAMETER: concentration at 60 min (ng/mL)
Kindly provide the numeric value in ng/mL only, without the unit symbol.

I'd like to know its concentration at 60 min. The compound in question is Cc1nc(C)c(/C=[N+](\[O-])C(C)(C)C)nc1C [TBN]
27500

----------
# EXPERIMENT DESCRIPTION: pharmacokinetic study in the cerebrospinal fluid of cynomolgus monkey
# Format: in vivo
# MEASUREMENT CONTEXT: cerebrospinal fluid, iv, 30 mg/kg, 30 min after second intravenous 30 mg/kg dose, individual animals, read-out: Drug concentration in cerebrospinal fluid
MEASURED PARAMETER: concentration at 30 min
Include the unit right after the number.

Suppose we examine the molecule Cc1nc(C)c(/C=[N+](\[O-])C(C)(C)C)nc1C [TBN] ; what concentration at 30 min value has been reported?
41100 ng/mL

----------
# EXPERIMENT DESCRIPTION: pharmacokinetic study in the cerebrospinal fluid of cynomolgus monkey
# Format: in vivo
# MEASUREMENT CONTEXT: cerebrospinal fluid, iv, 30 mg/kg, 10 min after second intravenous 30 mg/kg dose, individual animals, read-out: Drug concentration in cerebrospinal fluid
MEASURED PARAMETER: concentration at 10 min (ng/mL)
// units = ng/mL; emit number, no label

Look up concentration at 10 min: Cc1nc(C)c(/C=[N+](\[O-])C(C)(C)C)nc1C
48800
